Molecular target: P. falciparum apicoplast DNA polymerase (Pf-apPOL) (Plasmodium falciparum, UniProt Q8ILY1)
Sequence (Q8ILY1 entry or part of it): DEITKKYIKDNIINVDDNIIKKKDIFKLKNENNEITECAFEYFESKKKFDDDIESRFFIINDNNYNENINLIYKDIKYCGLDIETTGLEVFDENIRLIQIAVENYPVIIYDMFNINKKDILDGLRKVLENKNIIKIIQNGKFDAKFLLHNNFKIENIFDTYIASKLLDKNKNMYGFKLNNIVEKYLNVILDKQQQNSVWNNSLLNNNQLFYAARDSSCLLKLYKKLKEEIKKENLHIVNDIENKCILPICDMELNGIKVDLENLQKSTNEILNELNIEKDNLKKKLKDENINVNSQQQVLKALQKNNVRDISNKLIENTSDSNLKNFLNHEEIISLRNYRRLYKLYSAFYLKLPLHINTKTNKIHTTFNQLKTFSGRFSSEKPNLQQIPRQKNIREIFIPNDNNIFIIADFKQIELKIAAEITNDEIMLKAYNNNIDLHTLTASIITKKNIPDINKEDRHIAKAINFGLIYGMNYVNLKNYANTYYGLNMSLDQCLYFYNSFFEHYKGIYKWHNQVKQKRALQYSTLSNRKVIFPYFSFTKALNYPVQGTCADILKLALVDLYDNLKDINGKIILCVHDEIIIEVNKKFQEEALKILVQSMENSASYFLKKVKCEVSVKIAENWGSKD
Assay: Fluorescence-based high-throughput DNA polymerase assay (molecular beacon), primary screen and dose-response;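 for % inhibition Apol 40': compound concentration given in µM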
Type: biochemical
Settings: DRC-2; 40'; concentration 20
Listing of entries alongside the reported % inhibition Apol 40'.
Give your result in % as a bare value.

COc1ccc(/C=C/c2cc(C(=O)O)c3ccccc3n2)cc1 [Molecule 5, COc1ccc(cc1)/C=C/c1nc2ccccc2c(c1)C(=O)O] | 46
O=C(Nc1c2c(nn1-c1ccc(Oc3ccccc3)cc1)CSC2)c1ccco1 [KU0055927] | 65
Cc1cccc(CC(=O)N2CCc3c(nc4cc(-c5ccccc5)[nH]n4c3=O)C2)c1 [Molecule 12] | 65

Input: Which % inhibition Apol 40' is listed for COc1ccc(S(=O)(=O)/N=C2\NC(=O)/C(=C3\C(=O)Nc4ccc([N+](=O)[O-])cc43)S2)cc1 [KU0054985] ?
Output: 38

Input: Consider the compound CC1(C)CC(=O)C2=C(C1)OC1=C(C(=O)CC(C)(C)C1)C2c1ccc(O)cc1 [KU0194226] and give its measured % inhibition Apol 40'.
Output: 31

Input: Sample CC(C)(C)OC(=O)COc1ccc2cc(-c3ccccc3)c(=O)oc2c1 [Molecule 81] — what was its % inhibition Apol 40'?
Output: 25

Input: # query: % inhibition Apol 40' of entry Cc1ccccc1C(=O)N1CCc2c(nc3cc(-c4ccccc4)[nH]n3c2=O)C1 [Molecule 41]
Output: 18

Input: Reported % inhibition Apol 40' for CCCc1ccc(Oc2coc3cc(OC)ccc3c2=O)cc1 [KU0193249] : what is it?
Output: 20

Input: What value of % inhibition Apol 40' has been reported for the following compound? COc1cc(NC(=O)c2ccccc2)c(OC)cc1NC(=O)Cc1cccs1 [KU0032113]
Output: 62

----------
Target: P. falciparum apicoplast DNA polymerase (Pf-apPOL) (Plasmodium falciparum, UniProt Q8ILY1)
Assay: Fluorescence-based high-throughput DNA polymerase assay (molecular beacon), primary screen and dose-response;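 for % inhibition ApPOL 90': test concentration in µM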
Type: biochemical
Conditions: DRC-2; 90'; concentration 5
List of % inhibition ApPOL 90' values.
Numbers only here, please. The scale is %.

Input: Field request: % inhibition ApPOL 90' | item: COc1cc(NC(=O)c2ccccc2)c(OC)cc1NC(=O)Cc1cccs1
Output: 25

Input: Record request: % inhibition ApPOL 90' value, item Oc1cccc2ccc(/C=C/c3ccc4c(c3)OCO4)nc12
Output: 24

Input: Fill blank: measured % inhibition ApPOL 90' of the molecule Cc1ccc(CNC(=O)c2cnn3c(O)cc(CSc4ccc(Cl)cc4)nc23)cc1 is ____.
Output: 49

Input: Requested field: % inhibition ApPOL 90'. Item: COc1cc(Cl)c(C)cc1NC(=O)Cn1ccc2c(=O)[nH]ccc21
Output: 15

Input: Entry COc1cccc(C(=O)N2CCc3c(nc4cc(-c5ccccc5)[nH]n4c3=O)C2)c1OC : reported % inhibition ApPOL 90' = ?
Output: 20

----------
Biological target: P. falciparum apicoplast DNA polymerase (Pf-apPOL) (Plasmodium falciparum, UniProt Q8ILY1)
Test: Fluorescence-based high-throughput DNA polymerase assay (molecular beacon), primary screen and dose-response;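 for % inhibition ApPOL 90': test concentration in µM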
Format: biochemical
Conditions: conc. 5; 90'; DRC-2
attribute-measured: % inhibition ApPOL 90' (%)
Number in %, nothing else.

CCCCCCCCCCCC1SCC(C(=O)O)N1C(C)=O (stereo not shown) | 13

Input: For the compound O=C(CSc1nnc(-c2ccncc2)[nH]1)c1ccc(O)c(O)c1 , what % inhibition ApPOL 90' is on record?
Output: 62

Input: Requested field: % inhibition ApPOL 90'. Item: COc1ccc(C)cc1NC(=O)Cn1ccc2c(=O)[nH]ccc21 [Molecule 15, COc1ccc(cc1NC(=O)Cn1ccc2c1cc[nH]c2=O)C]
Output: 24

Input: I'd like to know its % inhibition ApPOL 90'. The compound in question is Cc1cc(C)cc(-n2nc3c(c2NC(=O)c2ccco2)CSC3)c1
Output: 21

Input: Find the recorded % inhibition ApPOL 90' belonging to Cc1cccc(-c2nnc3ccc(NS(=O)(=O)c4ccc(C)c(C)c4)nn23)c1 and report it.
Output: 17

Input: Recorded % inhibition ApPOL 90' for O=C1NCCCn2cc(S(=O)(=O)Nc3ccccc3)cc21 , please?
Output: 7

Input: Bench note: what % inhibition ApPOL 90' did O=C(CSc1nc2ccccc2s1)Nc1ncc([N+](=O)[O-])s1 show?
Output: -10
